# Test system: Hepatitis C virus NS3 helicase
# experiment: inhibitors of HCV NS3 helicase, primary screen, biochemical, Cy5 molecular beacon fluorescence (AID 1800);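 further: 0% = DMSO wells and 100% = thioflavine S control wells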
# study.conditions: NS3 helicase DNA unwinding, at 10.9 µM, hits give high values
The campaign covered roughly 290,000 compounds. About 1,600 (0.55%) were called active. The entries come from a sample that favours actives as a whole.
Documented inhibition across a set of molecules
test.readout: inhibition (%)

molecule: COc1ccc(C(=O)NC2CCN(C(=S)NCCc3ccccc3)CC2)cc1
target.of.assay: Hepatitis C virus NS3 helicase
test.readout: inhibition
unit.symbol: %
assay.result: 0.36
--
molecule: S=C(NCCc1ccccc1)N1CCCCC1
target.of.assay: Hepatitis C virus NS3 helicase
test.readout: inhibition
unit.symbol: %
assay.result: 40.9
--
molecule: COc1cc(C2CC(=O)N3CN(Cc4ccccc4)CSC3=C2C#N)ccc1OCc1ccccc1 (stereo unspecified)
target.of.assay: Hepatitis C virus NS3 helicase
test.readout: inhibition
unit.symbol: %
assay.result: 52.1
--
molecule: CSc1ccccc1OCc1cc(C(=O)N(C)CCc2c(C)n[nH]c2C)no1
target.of.assay: Hepatitis C virus NS3 helicase
test.readout: inhibition
unit.symbol: %
assay.result: 11.5
--
molecule: CSc1c(SCc2ccccc2)cnn(Cc2ccccc2)c1=O
target.of.assay: Hepatitis C virus NS3 helicase
test.readout: inhibition
unit.symbol: %
assay.result: 48.3
--
molecule: CCOc1cc(-c2noc(CCCC(=O)NC3CCCCC3)n2)ccc1OC
target.of.assay: Hepatitis C virus NS3 helicase
test.readout: inhibition
unit.symbol: %
assay.result: -0.34
